- assay target: T1, human LAG-3 (full length, on the cell surface) (human, UniProt P18627 23-525)
- T1 construct: Full-length human LAG-3 expressed on cells; also called HEK293-hLAG-3; HEK293 cells transfected with LAG-3 gene
- T1 sequence: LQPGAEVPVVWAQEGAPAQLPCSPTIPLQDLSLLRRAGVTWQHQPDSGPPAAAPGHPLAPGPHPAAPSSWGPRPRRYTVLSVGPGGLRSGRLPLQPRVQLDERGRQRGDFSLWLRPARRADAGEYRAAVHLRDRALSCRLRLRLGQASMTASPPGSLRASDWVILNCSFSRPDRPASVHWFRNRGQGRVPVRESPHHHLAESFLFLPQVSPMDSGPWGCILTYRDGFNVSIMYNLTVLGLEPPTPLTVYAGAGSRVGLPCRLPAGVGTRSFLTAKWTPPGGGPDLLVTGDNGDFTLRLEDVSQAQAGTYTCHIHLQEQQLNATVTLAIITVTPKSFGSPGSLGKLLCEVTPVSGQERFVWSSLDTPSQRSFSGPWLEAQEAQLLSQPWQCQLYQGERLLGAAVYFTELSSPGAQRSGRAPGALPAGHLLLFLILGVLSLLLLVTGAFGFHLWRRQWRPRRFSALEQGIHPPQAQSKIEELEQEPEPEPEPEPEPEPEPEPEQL
- protocol notes: FACS, HEK293-hLAG-3; 0.320 nM
property name: Mean fluorescence intensity
Give your result as the value with the unit written after it.

Form field: reported Mean fluorescence intensity of 409B11E12 (mouse antibody purified from hybridoma) (antibody, V domains shown, also called mAb104-409B11E12) VH: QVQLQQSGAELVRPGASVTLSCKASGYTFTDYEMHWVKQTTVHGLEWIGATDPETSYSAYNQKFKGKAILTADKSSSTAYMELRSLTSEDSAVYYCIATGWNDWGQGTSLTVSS VL: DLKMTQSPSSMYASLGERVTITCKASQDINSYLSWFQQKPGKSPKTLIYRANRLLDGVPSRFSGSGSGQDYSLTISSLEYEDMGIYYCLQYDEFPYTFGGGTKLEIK
13.4 MFI
